Every entry's value here was drawn from ChEMBL document CHEMBL1201862.

# GI50 per record follows
- Tested on: LXFL 529
- test_summary: NCI tumour cell line growth inhibition, 48 h
Activity calls are given as the source filed them. Cut-off read from the data, not from the text of the source: active = GI50 up to about 1.1 µM and inactive = higher.

Consider the worked cases shown below.
CC(=O)Oc1ccc(C(c2ccc(OC(C)=O)cc2)c2ccccn2)cc1    28.8 µM (inactive)
CCCCCCCCCCC(O)C1CCC(C(O)CCC(O)C2CCC(CCCCCCC[C@H](O)CC3=C[C@@H](C)OC3=O)O2)O1 (some centres undefined)    14.6 µM (inactive)
O=S1(=O)CC#CC[C@@H](CO)[C@@H](CO)CC#CC1    71.3 µM (inactive)
C=C1C(=O)OC2/C=C(\CO)C(OC(C)=O)CC(O)/C(C)=C/C(OC(=O)C(C)CC)C12 (centres undefined)    13.9 µM (inactive)
CN(C)CCC1(C2=CCCC2)CC/C(=C\c2ccc(Cl)cc2)C1=O (centres undefined)    8.95 µM (inactive)

Req: Need GI50 of `C=C(Cl)Cc1c(O)c2c(c(O)c1CC(=C)Cl)C(=O)c1ccccc1C2=O` , thanks.
Resp: > 100 µM (inactive)

Req: Suppose we examine the molecule CCCCCCC(C)OC(=O)/C=C(\CC(=O)OC(C)CCCCCC)C(=O)OC(C)CCCCCC (centres undefined) ; what GI50 value has been reported?
Resp: > 100 µM (inactive)

Req: Quick one: GI50 of `O=C(OCc1ccccc1)OOC(=O)OCc1ccccc1` ?
Resp: > 100 µM (inactive)

Req: Given COC(=O)C(Cc1ccccc1)/N=C/c1c(O)c(O)c(C(C)C)c2cc(C)c(-c3c(C)cc4c(C(C)C)c(O)c(O)c(/C=N/C(Cc5ccccc5)C(=O)OC)c4c3O)c(O)c12 (centres undefined) , state its recorded GI50.
Resp: 18 µM (inactive)

Req: Report GI50 for `O=C(Cc1nc2sc3c(c2c(=O)[nH]1)CCCC3)Nc1ccccc1` please.
Resp: > 100 µM (inactive)

Req: Recorded GI50 of `COc1cccc(SSc2cccc(OC)c2C(=O)O)c1C(=O)O` , please.
Resp: > 100 µM (inactive)

Req: # GI50 lookup, item C=CC1(c2ccccc2Cl)N/C(=C/OCC)CO1 (centres undefined)
Resp: > 100 µM (inactive)

Req: Which GI50 is listed for `C=CCCCn1ccc2ccccc21` ?
Resp: > 100 µM (inactive)

Req: For the molecule O=C1C2C3C=C4c5ccccc5N(c5ccccc5)C4(C2C(=O)N1Cc1ccccc1)C1C(=O)N(Cc2ccccc2)C(=O)C31 (centres undefined) , what GI50 is on record?
Resp: > 100 µM (inactive)

Req: Item `Cc1ccc(S(=O)(=O)OC2CC=CC2)cc1` has what recorded GI50?
Resp: > 100 µM (inactive)
